biological target: T1, histidine-tagged human SIRPA v1 (Novoprotein) (human, UniProt P78324 31-370, limits assumed); experiment: BLI (Octet), antibody on anti-human IgG Fc sensor, His-huSIRPA in solution, single-curve 1:1 fit
T1 construct: bought, soluble; also called huSIRPA; soluble huSIRPA; not shown: histidine tag
T1 sequence (P78324 31-370 limits assumed): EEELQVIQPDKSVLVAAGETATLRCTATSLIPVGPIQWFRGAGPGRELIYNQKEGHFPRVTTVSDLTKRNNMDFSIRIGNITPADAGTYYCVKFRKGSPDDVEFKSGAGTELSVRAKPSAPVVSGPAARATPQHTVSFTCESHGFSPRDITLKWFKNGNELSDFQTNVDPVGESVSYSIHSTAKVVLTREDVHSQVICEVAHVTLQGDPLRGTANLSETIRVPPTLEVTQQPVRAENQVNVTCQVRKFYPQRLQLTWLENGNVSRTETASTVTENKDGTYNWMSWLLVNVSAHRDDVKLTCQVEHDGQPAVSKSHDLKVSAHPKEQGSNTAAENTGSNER
Consider the following binders; for each one, report its koff.
Answers are plain numbers, in s⁻¹.

3F9-8 (antibody, human IgG1, V domains shown, also called mAb 3F9-8) VH: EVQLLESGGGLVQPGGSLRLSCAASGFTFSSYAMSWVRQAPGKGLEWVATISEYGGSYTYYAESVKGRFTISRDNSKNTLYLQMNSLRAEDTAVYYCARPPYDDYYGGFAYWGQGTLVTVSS VL: DIQLTQSPSSLSASVGDRVTITCRASKSVSSGGYSYMHWYQQKPGKAPKLLIYLASNLESGVPSRFSGSGSGTDFTLTISSVQPEDFATYYCQHNRELPGTFGQGTKLEIK ... 0.000276

Go through the items and report each one's koff.
1. 3F9-7 (antibody, human IgG1, V domains shown, also called mAb 3F9-7) VH: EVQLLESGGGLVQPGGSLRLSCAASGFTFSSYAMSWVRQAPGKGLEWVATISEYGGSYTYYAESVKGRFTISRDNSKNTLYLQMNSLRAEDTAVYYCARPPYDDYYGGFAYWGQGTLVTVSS VL: DIQLTQSPSSLSASVGDRVTITCRASKSVSSGGYSYMHWYQQKPGKAPKLLIYLASNLESGVPSRFSGSGSGTDFTLTISSVQPEDFATYYCQHNRELPATFGQGTKLEIK
2. 3F9-24 (antibody, human IgG1, V domains shown, also called mAb 3F9-24) VH: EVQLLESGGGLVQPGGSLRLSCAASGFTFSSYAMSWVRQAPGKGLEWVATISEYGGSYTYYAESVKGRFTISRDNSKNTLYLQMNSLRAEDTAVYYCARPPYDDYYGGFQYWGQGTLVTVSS VL: DIQLTQSPSSLSASVGDRVTITCRASKSVSSGGYSYMHWYQQKPGKAPKLLIYLASNLESGVPSRFSGSGSGTDFTLTISSVQPEDFATYYCQHNRELPGTFGQGTKLEIK

1: 0.00018; 2: 0.000155
